Biological target: human HPK1 (MAP4K1) (Homo sapiens (Human), UniProt Q92918)
Sequence (Q92918 17-274): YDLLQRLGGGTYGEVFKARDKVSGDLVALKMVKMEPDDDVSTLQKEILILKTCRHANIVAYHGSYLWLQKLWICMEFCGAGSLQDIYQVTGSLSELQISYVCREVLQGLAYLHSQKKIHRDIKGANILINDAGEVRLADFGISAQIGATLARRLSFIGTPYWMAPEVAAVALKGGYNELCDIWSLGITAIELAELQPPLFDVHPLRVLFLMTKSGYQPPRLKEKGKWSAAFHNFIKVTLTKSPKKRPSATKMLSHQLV
Test: HPK1 IC50 Assay (TR-FRET peptide phosphorylation)
Type: biochemical
Conditions: recombinant HPK1 kinase domain 0.15 nM, 10 μM ATP, 1 μM STK S1 peptide; geometric mean of multiple experiments
quantityKind: IC50 (nM)

{"chemicalStructure": "Cc1cc(F)c(Nc2nc(-c3cnc4c(c3)N([C@H]3C[C@@H](N5CCCCC5)C3)C(=O)C4(C)C)cc3ncn(C(C)C)c23)cc1C(=O)NC1(CF)CC1", "quantityKind": "IC50", "measurement": 0.3}
{"chemicalStructure": "CC(=O)N1CCC2(CC1)C(=O)N([C@H]1C[C@@H](N3CCCCC3)C1)c1cc(-c3cc4ncn(C(C)C)c4c(Nc4cc(C(=O)NC(C)(C)C)c(C)cc4F)n3)ccc12", "quantityKind": "IC50", "measurement": 0.3}
{"chemicalStructure": "Cc1c(C(=O)NC2CC2)cc(Nc2nc(-c3cnc4c(c3)N([C@H]3C[C@@](C)(N5CCCCC5)C3)C(=O)C4(C)C)cc3ncn(C(C)C)c23)c(F)c1F", "quantityKind": "IC50", "measurement": 0.07}

###

Molecular target: human HPK1 (MAP4K1) (Homo sapiens (Human))
Assay: HPK1 IC50 Assay (TR-FRET peptide phosphorylation)
Type: biochemical
Conditions: recombinant HPK1 kinase domain 0.15 nM, 10 μM ATP, 1 μM STK S1 peptide; geometric mean of multiple experiments
Quick list: IC50 per entry.
quantityKind: IC50

{"compound": "Cc1ccc(Nc2nc(-c3ccc4c(c3)N([C@H]3C[C@@H](N5CCCCC5)C3)C(=O)C4(C)C)cc3ncn(C(C)C)c23)cc1C(=O)NCC(C)C [Example 139]", "measurement": "0.06 nM"}
{"compound": "CC(C)n1cnc2cc(-c3cnc4c(c3)N([C@H]3C[C@@](C)(N5CCC6CC6C5)C3)C(=O)C4(C)C)nc(Nc3cc(C(=O)NC4(CF)CC4)c(Cl)c(F)c3F)c21 (mixture of isomers) [Example 257]", "measurement": "0.1 nM"}
{"compound": "Cc1c(C(=O)NC2(C(F)F)CC2)cc(Nc2nc(-c3ccc4c(c3)N([C@H]3C[C@@H](N5CCCCC5)C3)C(=O)C4(C)C)cc3ncn(C(C)C)c23)c(F)c1F [Example 144]", "measurement": "0.07 nM"}
{"compound": "CNC(=O)c1cc(Nc2nc(-c3ccc4c(c3)N([C@H]3C[C@@H](N5CCCCC5)C3)C(=O)C43CCN(C(=O)[C@@H](C)O)CC3)cc3ncn(C(C)C)c23)ccc1C [Example 147]", "measurement": "0.2 nM"}
{"compound": "Cc1ccc(Nc2nc(-c3ccc4c(c3)N([C@H]3C[C@@H](N5CC(C)(C)C5)C3)C(=O)C4(C)C)cc3ncn(C(C)C)c23)cc1C(=O)NC1CC1 [Example 121]", "measurement": "0.1 nM"}
{"compound": "CNC(=O)c1cc(Nc2nc(-c3ccc4c(c3)N([C@H]3C[C@@H](N5CC6C(C5)C6(F)F)C3)C(=O)C43CCN(C4COC4)CC3)cc3ncn(C(C)C)c23)c(F)cc1C (some centres unmarked) [Example 70]", "measurement": "0.7 nM"}
{"compound": "CNC(=O)c1cc(Nc2nc(-c3ccc4c(c3)N([C@H]3C[C@@H](N5CCC[C@@H](F)C5)C3)C(=O)C43CCN(C4COC4)CC3)cc3ncn(C(C)C)c23)c(F)cc1C [Example 170]", "measurement": "0.8 nM"}
{"compound": "Cc1ccc(Nc2nc(-c3ccc4c(c3)N([C@H]3C[C@@H](N5CCCCC5)C3)C(=O)C4(C)C)cc3ncn(C(C)C)c23)cc1C(=O)NCC(C)(F)F [Example 28]", "measurement": "0.1 nM"}
{"compound": "CC[C@H](C)NC(=O)c1cc(Nc2nc(-c3ccc4c(c3)N([C@H]3C[C@@H](N5CCCCC5)C3)C(=O)C43CCN(C(C)=O)CC3)cc3ncn(C(C)C)c23)c(F)cc1C [Example 88]", "measurement": "0.2 nM"}
{"compound": "CNC(=O)c1cc(Nc2nc(-c3ccc4c(c3)N([C@H]3C[C@@H](N5CCCCC5)C3)C(=O)C43CCN(C(=O)C4(O)CC4)CC3)cc3ncn(C4CC4)c23)ccc1C [Example 84]", "measurement": "0.2 nM"}
{"compound": "CC(C)n1cnc2cc(-c3cnc4c(c3)N([C@H]3C[C@@](C)(N5CCCCC5)C3)C(=O)C4(C)C)nc(Nc3cc(C(=O)NCC(F)F)c(Cl)c(F)c3F)c21 [Example 250]", "measurement": "0.1 nM"}
